# HDL cholesterol listing for each entry below
Species on record: Gallus gallus
Test name: Compound is evaluated for the effect on lipid metabolism in 6-week-old male chickens at a concentration of 20 ppm in the diet and measured for HDL cholesterol
Format: functional

| Smiles notation | Unit label | HDL cholesterol |
| --- | --- | --- |
| CC(C)=CCC/C(C)=C/CC/C(C)=C/CC[C@]1(C)CCc2c(C)c(O)c(C)c(C)c2O1 | mg 100ml-1 | 102 |
| CC(C)=CCC/C(C)=C/CC/C(C)=C/CC[C@]1(C)CCc2cc(O)cc(C)c2O1 | mg 100ml-1 | 99 |
| CC(C)=CCC/C(C)=C/CC/C(C)=C/CC[C@]1(C)CCc2cc(O)c(C)c(C)c2O1 | mg 100ml-1 | 102 |
| Cc1c(C)c2c(c(C)c1O)CC[C@@](C)(CCC[C@H](C)CCC[C@H](C)CCCC(C)C)O2 | mg 100ml-1 | 113 |
